This collection of values is drawn from paper PMC7619385.

Target: LmxCLK1 (Leishmania mexicana)
Sequence (E9AMP2 1-422): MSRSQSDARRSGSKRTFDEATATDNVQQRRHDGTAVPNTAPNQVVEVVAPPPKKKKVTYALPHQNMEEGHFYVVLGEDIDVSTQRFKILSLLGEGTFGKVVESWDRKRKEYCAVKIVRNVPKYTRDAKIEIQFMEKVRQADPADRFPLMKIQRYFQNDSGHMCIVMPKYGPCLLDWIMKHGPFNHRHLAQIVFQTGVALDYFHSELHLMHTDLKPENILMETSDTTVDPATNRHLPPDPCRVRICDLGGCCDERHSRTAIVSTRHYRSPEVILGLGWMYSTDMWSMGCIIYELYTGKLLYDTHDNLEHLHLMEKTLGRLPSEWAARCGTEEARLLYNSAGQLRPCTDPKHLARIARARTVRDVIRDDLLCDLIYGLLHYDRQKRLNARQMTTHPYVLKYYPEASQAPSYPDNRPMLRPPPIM
Test: biochemical
Format: binding
Details: DSF, 10 µM compound, 2 µM LmxCLK1, mean of two runs; read-out: ΔTm Average
// values below are reported ΔTm at 10 µM
Expressed in °C, but write only the number.

In [3]: df
Out[3]:
                                   compound                    assaysystem  measvalue
0  Cc1c(NC(=O)c2ccc(C(C)(C)C)cc2)cccc1-c1cn(C)c(=O)c(Nc2ccc(C(=O)N3CCOCC3)cc2)n1 [CGI1746]  LmxCLK1 (Leishmania mexicana)       -0.2
1  Cc1cc(Nc2ncc(Cl)c(Nc3ccccc3S(=O)(=O)C(C)C)n2)c(OC(C)C)cc1C1CCNCC1 [LDK378]  LmxCLK1 (Leishmania mexicana)        0.2
2  Cc1c(CN2CCN(C(=O)[C@H](C)O)CC2)sc2c(N3CCOCC3)nc(-c3cnc(N)nc3)nc12 [GDC-0980 (RG7422)]  LmxCLK1 (Leishmania mexicana)          0
3  FC(F)c1nc2ccccc2n1-c1nc(N2CCOCC2)nc(N2CCOCC2)n1 [ZSTK474]  LmxCLK1 (Leishmania mexicana)          0
4  CN(C)C/C=C/C(=O)Nc1cc2c(Nc3ccc(F)c(Cl)c3)ncnc2cc1O[C@H]1CCOC1 [Afatinib (BIBW2992)]  LmxCLK1 (Leishmania mexicana)       -0.2
5  O=C(Nc1cc(C(F)(F)F)cc(C(F)(F)F)c1)c1cc(Cl)ccc1O [IMD 0354]  LmxCLK1 (Leishmania mexicana)          0
6  Cc1nc(NC(=O)N2CCC[C@H]2C(N)=O)sc1-c1ccnc(C(C)(C)C(F)(F)F)c1 [BYL719]  LmxCLK1 (Leishmania mexicana)        0.2
7  COC[C@H]1OC(=O)c2coc3c2[C@@]1(C)C1=C(C3=O)[C@@H]2CCC(=O)[C@@]2(C)C[C@H]1OC(C)=O [Wortmannin]  LmxCLK1 (Leishmania mexicana)       -0.2

// query Item CC(C)CC(=O)Nc1[nH]nc2c1CN(C(=O)C1CCN(C)CC1)C2(C)C [PHA-793887] has what recorded ΔTm at 10 µM?
// result 0.1

// query Item COc1cc2nccc(Oc3ccc(NC(=O)Nc4cc(C)on4)c(Cl)c3)c2cc1OC [Tivozanib (AV-951)] has what recorded ΔTm at 10 µM?
// result 0.1
